- Tested on: OPM-2 cells
- assay_info: Cell viability assay (OPM-2 cells), CCK-8
- Type: cell-based
- condition_description: Homo sapiens, OPM-2, 24 h, WST, 5% FBS, read-out: OPM2 (WST, 5% FBS)
As shown below, each of these molecules has a reported pIC50 value.
Expect pIC50 as a plain number equal to -log10 of the molar concentration.

Answered examples (4):
- Cc1c(Cl)cc2cc1SCc1cc(nn1C)CSCc1nn3c(c1-c1c(Cl)ccc4c(c(C(=O)O)n(C)c14)CCCO2)CCCC3: 5.98
- Cn1c(C(=O)O)c2c3ccc(Cl)c(c31)-c1c(nn3c1CCC3)CSCC1=NC=C(CSc3cc(c4ccccc4c3)OCCC2)S1: 5.28
- Cc1c2c(nn1C)CN(CCO)Cc1cc(n(C)n1)CSc1cc(c3ccccc3c1)OCCCc1c(C(=O)O)n(C)c3c-2c(Cl)ccc13: 6.41
- Cc1oc2nc1CSc1cc(c3ccccc3c1)OCCCc1c(C(=O)O)n(C)c3c(c(Cl)ccc13)-c1c(nn3c1OCC3)CSC2: 5.23

Inquiry: Query (molecule): "Cc1c2c(nn1C)CN(S(C)(=O)=O)Cc1cc(n(C)n1)CSc1cc(c3ccccc3c1)OCCCc1c(C(=O)O)n(C)c3c-2c(Cl)ccc13" ; field requested: pIC50
Reply text: 6.50

Inquiry: Record request: pIC50 value, item "Cn1nc2cc1CSc1cc(c3ccc(Cl)cc3c1)OCCCc1c(C(=O)O)n(C)c3c(c(Cl)ccc13)-c1c(nn3c1COCC3)CSC2"
Reply text: 6.42

* * *

- assay_info: Kinetic solubility assay
- Assay type: physicochemical
- condition_description: pH 6.5 PBS buffer, HPLC
- Protocol: Representative Compounds of the Disclosure were tested in a solubility assay with pH 6.5 PBS buffer. PBS buffer was prepared by dissolving 4.86 g of potassium dihydrogen phosphate and 5.09 g of disodium hydrogen phosphate dodecahydrate in 1 L of ultrapure water to have final pH value of 6.5. […] The solubility of each sample was determined by the measured peak area in HPLC.
measured_endpoint: Solubility (pH 6.5, μg/mL)
Numeric only. Scale: μg/mL

• Cn1nc2cc1CSc1cc(c3ccc(F)cc3c1)OCCCc1c(C(=O)O)n(C)c3c(c(Cl)ccc13)-c1c(nn3c1COCC3)CSC2 (atropisomer, axis not shown) [compound 40] = 74

Now consider the entry below.
Inquiry: Report Solubility (pH 6.5, μg/mL) for Cc1c2c(nn1C)CN(S(C)(=O)=O)Cc1cc(n(C)n1)CSc1cc(c3ccc(F)cc3c1)OCCCc1c(C(=O)O)n(C)c3c-2c(Cl)ccc13 [compound 48] please.
Reply text: 3

* * *

# IC50 values compiled below
- Test system: OPM-2 cells
- assay_info: Cell viability assay (OPM-2 cells), CCK-8
- Type: cell-based
- condition_description: Homo sapiens, OPM-2, 24 h, WST, 5% FBS, read-out: OPM2 (WST, 5% FBS)
Numbers only; they are read as nM.

Some solved entries appear below for comparison.
• Cc1nc2sc1CSc1cc(c3ccccc3c1)OCCCc1c(C(=O)O)n(C)c3c(c(Cl)ccc13)-c1c(nn3c1CCC3)CSC2 [compound 5] = 973
• Cc1cc2ccc1CSCc1nn3c(c1-c1c(Cl)ccc4c(c(C(=O)O)n(C)c14)CCCOc1cc(cc4cc(F)ccc14)SC2)CCC3 [compound 29] = 348
• Cn1nc2cc1CSc1cc(c3ccccc3c1)OCCCc1c(C(=O)O)n(C)c3c(c(Cl)ccc13)-c1c(nn3c1COCC3)CSC2 [compound 12] = 532

Inquiry: Quick one: IC50 for Cc1cc2ccc1CSc1cc(c3ccc(F)cc3c1)OCCCc1c(C(=O)O)n(C)c3c(c(Cl)ccc13)-c1c(nn3c1CCC3)CSC2 [compound 30] ?
Reply text: 255

Inquiry: Reported IC50 for Cn1nc2cc1CSc1cc(c3ccccc3c1)OCCCc1c(C(=O)O)n(C)c3c(c(Cl)ccc13)-c1c(nn3c1OCC3)CSC2 [compound 6] : what is it?
Reply text: 1350

Inquiry: What value of IC50 has been recorded for this entry: Cn1nc2cc1CSc1cc(c3ccccc3c1)OCCCc1c(C(=O)O)n(C)c3c(c(Cl)ccc13)-c1c(nn3c1CSCC3)CSC2 [compound 21]
Reply text: 291

Inquiry: Quick one: IC50 for Cn1nc2cc1CSc1cc(c3ccc(F)cc3c1)OCCCc1c(C(=O)O)n(C)c3c(c(Cl)ccc13)-c1c(nn3c1CCCCC3)CSC2 [compound 28] ?
Reply text: 184

Inquiry: Any idea what its IC50 is? The molecule is Cn1nc2cc1CSc1cc(c3ccccc3c1)OCCCc1c(C(=O)O)n(C)c3c(c(Cl)ccc13)-c1c(nn3c1OCCC3)CSC2 [compound 22]
Reply text: 1150

Inquiry: May I ask what IC50 has been recorded for CC(=O)N1Cc2cc(n(C)n2)CSc2cc(c3ccccc3c2)OCCCc2c(C(=O)O)n(C)c3c(c(Cl)ccc23)-c2c(nn(C)c2C)C1 [compound 35] ?
Reply text: 763

Inquiry: For the molecule shown here, Cc1c2c(nn1C)CN(C1CC1)Cc1cc(n(C)n1)CSc1cc(c3ccccc3c1)OCCCc1c(C(=O)O)n(C)c3c-2c(Cl)ccc13 [compound 49] , give the reported IC50.
Reply text: 167

Inquiry: What value of IC50 has been reported for the following molecule? Cn1nc2cc1CSc1cc(c3ccc(F)cc3c1)OCCCc1c(C(=O)O)n(C)c3c(c(Cl)ccc13)-c1c(nn3c1CCCC3)CSC2 [compound 26]
Reply text: 133

Inquiry: If you can, please state the reported IC50 value of Cn1c(C(=O)O)c2c3ccc(Cl)c(c31)-c1c(nn3c1CCC3)CSCc1coc(n1)CSc1cc(c3ccccc3c1)OCCC2 [compound 2] .
Reply text: 1140

Inquiry: # query: IC50 of entry Cn1nc2cc1CSc1cc(cc(C(F)(F)F)c1)OCCCc1c(C(=O)O)n(C)c3c(c(Cl)ccc13)-c1c(nn3c1COCC3)CSC2 [Cpd. No. 33]
Reply text: 965

Inquiry: Suppose we examine the molecule Cc1nc2oc1CSc1cc(c3ccccc3c1)OCCCc1c(C(=O)O)n(C)c3c(c(Cl)ccc13)-c1c(nn3c1CCC3)CSC2 [compound 10] ; what IC50 value has been reported?
Reply text: 8810

Inquiry: # get_value(readout='IC50', item= Cn1nc2cc1CSc1cc(c3ccc(F)cc3c1)OCCCc1c(C(=O)O)n(C)c3c(c(Cl)ccc13)-c1c(nn3c1COCC3)CN(S(C)(=O)=O)C2 [compound 42] )
Reply text: 357

Inquiry: Consider the molecule Cn1c(C(=O)O)c2c3ccc(Cl)c(c31)-c1c(nn3c1CCC3)CSCc1csc(n1)CSc1cc(c3ccccc3c1)OCCC2 [compound 3] and give its measured IC50.
Reply text: 6580

Inquiry: I have this molecule here, Cn1nc2cc1CSc1cc(c3cc(Cl)ccc3c1)OCCCc1c(C(=O)O)n(C)c3c(c(Cl)ccc13)-c1c(nn3c1COCC3)CSC2 [compound 18] , and I need its recorded IC50.
Reply text: 3490

* * *

- system_under_test: Mcl-1 protein (residues 171-323) (Homo sapiens, UniProt Q07820)
- Sequence (Q07820 171-323): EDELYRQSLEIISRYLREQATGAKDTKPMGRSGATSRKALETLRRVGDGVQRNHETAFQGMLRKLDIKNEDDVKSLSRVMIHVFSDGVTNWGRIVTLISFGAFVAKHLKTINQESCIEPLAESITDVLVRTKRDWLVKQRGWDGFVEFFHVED
Rule: measured IC50 below 20 nM gets fulfilled; anything equal to or greater than 20 nM gets not fulfilled.

• Cn1c(C(=O)O)c2c3ccc(Cl)c(c31)-c1c(nn3c1CCC3)CSCc1coc(n1)CSc1cc(c3ccccc3c1)OCCC2 = fulfilled

Inquiry: Lab log: compare recorded IC50 with 20 nM; is it strictly lower for "Cn1nc2cc1CSc1cc(c3ccc(Cl)cc3c1)OCCCc1c(C(=O)O)n(C)c3c(c(Cl)ccc13)-c1c(nn3c1COCC3)CSC2" ?
Reply text: fulfilled

Inquiry: Is IC50 strictly under 20 nM for the entry "Cn1nc2cc1CSc1cc(c3ccc(F)cc3c1)OCCCc1c(C(=O)O)n(C)c3c(c(Cl)ccc13)-c1c(nn3c1CCCC3)CSC2" ?
Reply text: not fulfilled

Inquiry: Does this compound meet the criterion IC50 < 20 nM? "Cn1nc2cc1CSc1cc(c3ccccc3c1)OCCCc1c(C(=O)O)n(C)c3c(c(Cl)ccc13)-c1c(nn3c1COCC3)CSC2"
Reply text: fulfilled

Inquiry: Is IC50 strictly under 20 nM for the entry "Cc1nc2oc1CSc1cc(c3ccccc3c1)OCCCc1c(C(=O)O)n(C)c3c(c(Cl)ccc13)-c1c(nn3c1CCC3)CSC2" ?
Reply text: fulfilled

* * *

Attribute: Solubility (pH 6.5, μg/mL)
- assay_info: Kinetic solubility assay
- Format: physicochemical
- condition_description: pH 6.5 PBS buffer, HPLC
- Method: Representative Compounds of the Disclosure were tested in a solubility assay with pH 6.5 PBS buffer. PBS buffer was prepared by dissolving 4.86 g of potassium dihydrogen phosphate and 5.09 g of disodium hydrogen phosphate dodecahydrate in 1 L of ultrapure water to have final pH value of 6.5. […] The solubility of each sample was determined by the measured peak area in HPLC.

• Cn1nc2cc1CSc1cc(c3ccc(F)cc3c1)OCCCc1c(C(=O)O)n(C)c3c(c(Cl)ccc13)-c1c(nn3c1COCC3)CSC2 (atropisomer, axis not shown) [compound 39] = <1 μg/mL
• Cc1c2c(nn1C)CN(S(C)(=O)=O)Cc1cc(n(C)n1)CSc1cc(c3ccc(F)cc3c1)OCCCc1c(C(=O)O)n(C)c3c-2c(Cl)ccc13 [compound 47] = <1 μg/mL

Turning to the following molecule.
Inquiry: # lookup: Solubility (pH 6.5, μg/mL) of Cc1c2c(nn1C)CN(S(C)(=O)=O)Cc1cc(n(C)n1)CSc1cc(c3ccc(F)cc3c1)OCCCc1c(C(=O)O)n(C)c3c-2c(Cl)ccc13 [compound 45]
Reply text: >400 μg/mL
